# Tested on: PC-3
# assay: Growth inhibition of human PC3 cells by MTT assay
# Format: functional, cell-based
Listing of recorded IC50 by entry.

mol smiles	measured target	IC50 / µg/mL
COc1c(N2CCN(C)CC2)c(F)cc2c(=O)c(C(=O)N/N=C\c3cccc(O)c3)cn(C3CC3)c12	PC-3	3.4
COc1c(N2CCN(C)CC2)c(F)cc2c(=O)c(C(=O)N/N=C\c3ccccc3)cn(C3CC3)c12	PC-3	16.3
COc1c(N2CCN(C)CC2)c(F)cc2c(=O)c(C(=O)N/N=C\c3cccc(C)c3)cn(C3CC3)c12	PC-3	10
COc1cc(/C=N\NC(=O)c2cn(C3CC3)c3c(OC)c(N4CCN(C)CC4)c(F)cc3c2=O)ccc1O	PC-3	14.8
COc1c(N2CCN(C)CC2)c(F)cc2c(=O)c(C(=O)N/N=C\c3ccc([N+](=O)[O-])cc3)cn(C3CC3)c12	PC-3	15
COc1ccc(OC)c(/C=N\NC(=O)c2cn(C3CC3)c3c(OC)c(N4CCN(C)CC4)c(F)cc3c2=O)c1	PC-3	3

Taken from ChEMBL document CHEMBL4602605.
